In this section, each of the compounds is paired with its reported pIC50.
system: Ovarian cancer cell line; assay: Anticancer activity against patient-derived human Ovarian tumor cells assessed as tumor growth inhibition incubated for 72 hrs by FMCA assay; type: functional, cell-based
Interpret pIC50 as the negative base-10 log of the concentration measured in mol/L.

# ENTRY_SMILES, pIC50
measured = [
    ("CCc1c2c(nc3ccc(OC(=O)N4CCC(N5CCCCC5)CC4)cc13)-c1cc3c(c(=O)n1C2)COC(=O)[C@]3(O)CC", 4.12),
]

Now consider a different compound.
pIC50 reported for this compound O=c1[nH]cc(F)c(=O)[nH]1 : 3.25
